tested on: HIV-1IIIB
Strand notation (5' to 3'): a small letter for the sugar, then the base; units joined by * are phosphorothioate-linked, units joined directly phosphodiester-linked; [ ] holds rarer units or linkages, { } end groups; capitals alone tell only the bases. d = 2'-deoxy (DNA)
Label scheme, based on TI (TC50/IC50): bottom range: < 40; center range: ≥ 40 and < 200; top range: ≥ 200

As a guide, the following entries are already answered.
5676 (DNA dG*dG*dG*dG*dT*dT*dG*dG*dG*dG*dT*dT*dG*dG*dG*dG) [compound 5676]; center range
5650 (TTGGGGTTGGGGTTGGGGTT; phosphodiester, further chemistry not given here) [compound 5650]; bottom range
5675 (DNA dT*dT*dG*dG*dG*dG*dT*dT*dG*dG*dG*dG*dT*dT) [compound 5675]; bottom range
5649 (TTGGGGTTGGGGTTGGGGTTGGGG; phosphodiester, further chemistry not given here) [compound 5649]; top range

Prompt line: // return the class label for 4721 (CACGGGGTCG; phosphorothioate, further chemistry not given here) [compound 4721]
Response line: top range

Prompt line: // return the class label for 5677 (DNA dG*dG*dG*dG*dT*dT*dG*dG*dG*dG*dT*dT*dG*dG*dG*dG*dT*dT*dG*dG*dG*dG) [compound 5677]
Response line: center range

Prompt line: // return the class label for 5669 (DNA GGGGTTGGGGTTGGGG; unmodified DNA) [compound 5669]
Response line: bottom range

Prompt line: // return the class label for 5666 (DNA TTGGGGTTGGGGTTGGGG; phosphodiester, further chemistry not given here) [compound 5666]
Response line: center range

Prompt line: // return the class label for 5651 (TTGGGGTTGGGGTTGGGGTTGGGG; phosphorothioate, further chemistry not given here) [compound 5651]
Response line: center range

---

experiment: Fraction tetramer by size exclusion chromatography; type: physicochemical; details: Table 16; asterisk = more than one aggregate species
parameterMeasured: % tetramer (%)
One number for each entry, in %.

Recorded results for 2 substances are shown here.
TsTsGsGsGsGsTsT [TsTsGsGsGsGsTsT heat denatured]; 0
ToToGsGsGsGoToT; 72

Go through the items and report each one's % tetramer.
1. ToTsGoGsGoGsToT
2. TGTGTGTG [ISIS 6071, reference compound]
3. TsToGsGoGsGoTsT
4. TsTsGsGsGsGsTsTsB
5. α-TsTsGsGsGsGsTsT
6. TsTsGoGoGoGsTsT
7. α-ToToGoGoGoGoToT

Response line:
1: 9; 2: 0; 3: 83; 4: 85; 5: 98; 6: 80; 7: 97

---

Target: human type II phospholipase A2 (Homo sapiens, UniProt P14555)
Sequence (P14555 21-144): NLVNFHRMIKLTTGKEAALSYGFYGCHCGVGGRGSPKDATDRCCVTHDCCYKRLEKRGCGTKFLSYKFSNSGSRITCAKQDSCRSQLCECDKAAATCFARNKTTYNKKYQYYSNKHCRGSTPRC
Assay: Phospholipase A2 assay, 3H-oleic acid labelled E. coli substrate
Assay type: biochemical
Conditions: Table 5; 1 μM; two separate experiments
Strand notation (5' to 3'): a small letter for the sugar, then the base; units joined by * are phosphorothioate-linked, units joined directly phosphodiester-linked; [ ] holds rarer units or linkages, { } end groups; capitals alone tell only the bases. d = 2'-deoxy (DNA)
Think of 80% as a floor: if % Inhibition (1 μM) stands on it or above, it is t; beneath it, f.

As a guide, the following entries are already answered.
4947 (dA*dG*dG*dT*dG*dG*dG*dT*dA*dT*dA*dG) [compound 4947]; f
4962 (dG*dG*dG*dT*dG*dG*dG*dT*dA*dT) [compound 4962]; f
4946 (dG*dG*dG*dT*dG*dG*dG*dA*dA*dT*dA*dG) [compound 4946]; f
4955 (dG*dG*dG*dA*dG*dG*dG*dT*dA*dT*dA*dG) [compound 4955]; t
5544 (GGGTGGGTATAG; phosphorothioate, further chemistry not given here) [compound 5544]; f

Prompt line: API: above_or_equal(metric=% Inhibition (1 μM), cutoff=80%) for item 4956 (dG*dG*dG*dC*dG*dG*dG*dT*dA*dT*dA*dG) [compound 4956]
Response line: t
